test system: K-562 leukemia; test: NCI tumour cell line growth inhibition, 48 h; in the data active = GI50 below about 0.43 µM; inactive = the rest
Reply using exactly one outcome from 1 for active, 0 for inactive

Q. Can you look up the reported call for CCOC(=O)c1cc(-c2ccccc2)[nH]c1N/N=C/c1ccc(Cl)cc1 for me?
A. 0

Q. Can you look up the reported call for CCCN(CCC)c1ccc(/C=N/NC(=O)c2cccnc2)c(OC)c1 for me?
A. 0

Q. Can you look up the reported call for NS(=O)(=O)CC1CC[CH-]CC1.[Cl-].[Cl-].[Cl-].[Cl-].[Cl-].[Sb+5].c1ccncc1 for me?
A. 0

Q. Can you look up the reported call for C=C(CO)[C@@H]1CC[C@]2(COC3CCCCO3)CC[C@]3(C)[C@H](CC[C@@H]4[C@@]5(C)C=C(C=O)C(=O)C(C)(C)[C@@H]5CC[C@]43C)[C@@H]12 (some centres undefined) for me?
A. 1
